experimental.details: occurrence of SCRAs in intoxication samples of the prospective study
Parameters: species or system human
condition.notes: 139 intoxication samples of the prospective study, 2013 to 2021
Description: For this study, the 10 SCRAs (AB‐[…], ADB‐[…], AB‐FUBINACA, FUB‐AMB, Cumyl‐PEGACLONE, MDMB‐4en‐PINACA, MDMB‐CHMICA, 5F‐MDMB‐PICA, 5F‐ADB and 5F‐PB‐22) which were most frequently detected in intoxications in a prospective observational study during the time period of 2013 to 2021 were selected (see Table 1). […]
The recorded No. of intoxications of each item maps onto one of these classes: 0 (below 5), 1 (5 to below 20), 2 (20 or more)

{"compound": "C=CCCCn1nc(C(=O)NC(C(=O)OC)C(C)(C)C)c2ccccc21 (centres unmarked)", "class.name": 1}
{"compound": "COC(=O)C(NC(=O)c1cn(CC2CCCCC2)c2ccccc12)C(C)(C)C (centres unmarked)", "class.name": 2}
{"compound": "CCCCCn1cc(C(=O)c2ccc(CC)c3ccccc23)c2ccccc21", "class.name": 0}
{"compound": "COC(=O)C(NC(=O)c1nn(CCCCCF)c2ccccc12)C(C)(C)C (centres unmarked)", "class.name": 2}
{"compound": "CC(C)(c1ccccc1)n1ccc2c(c1=O)c1ccccc1n2CCCCCF", "class.name": 0}

Attention now turns to another entry.
Q: Please let me know in which category the item "O=C(Oc1cccc2cccnc12)c1cn(CCCCCF)c2ccccc12" belongs.
A: 1
